Assay: coupled detection enzyme interference, dose response, artefact control for MgcRacGAP inhibitor project, biochemical, coupled enzyme counter-screen (AID 624351);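 note: signal is the ADP detection kit reading of free GDP without any GAP enzyme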
Details: ADP Hunter coupled enzyme counter-screen, fluorescence, no MgcRacGAP; series mostly up to 80 µM
In all, about 2,400 compounds went through this assay and about 1,400 (58%) were called active.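 Rule for the calls: active = inhibition of 30% or more at any tested dose; inconclusive = primary hits over the limit that were never retested; inactive = the rest.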 So high a share suggests a set chosen from earlier hits. Some of the results follow.
I would appreciate it if you answered using one of these outcomes: 1 for active, -1 for inactive

The examples below pair each entry with its known result.
[[record]]
compound = "Nc1ccc(N2CCN(c3ccc(F)cc3)CC2)cc1"
assigned_category = 1

[[record]]
compound = "Nc1ccc(N2CCN(C(=O)c3cccs3)CC2)cc1"
assigned_category = 1

[[record]]
compound = "COc1cc(C(C)=NNC(=O)c2ccncc2)ccc1O"
assigned_category = 1

[[record]]
compound = "Cc1ccccc1OCCN1CCCC1"
assigned_category = -1

[[record]]
compound = "COc1ccccc1CN1CCN(C(=O)c2ccncc2)CC1"
assigned_category = -1


Query: // param item: "Nc1ccc(N2CCN(c3ccccc3)CC2)c(F)c1" ; yields the recorded call
Reply: 1

Query: // param item: "Cc1cc(-c2n[nH]c(=S)n2/N=C/c2ccc(Br)s2)n[nH]1" ; yields the recorded call
Reply: 1

###

Test: coupled detection enzyme interference, dose response, artefact control for MgcRacGAP inhibitor project, biochemical, coupled enzyme counter-screen (AID 624351);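 note: signal is the ADP detection kit reading of free GDP without any GAP enzyme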
Conditions: ADP Hunter coupled enzyme counter-screen, fluorescence, no MgcRacGAP; series mostly up to 80 µM
The whole screen tested about 2,400 compounds, of which about 1,400 (58%) were called active. So high a share suggests a set chosen from earlier hits. Some of the results follow.
Property Name: IC50

Examples with answers:
[[record]]
compound = "CC1(C)O[C@@H]2[C@H](O1)[C@@H](COS(=O)(=O)O)O[C@H]2n1c(=S)[nH]c2c(=O)[nH]c(N)nc21"
result = "55.7 µM (active)"

[[record]]
compound = "CN(C)c1ccc(N=Cc2nc(-c3ccccc3)oc2OC(=O)c2cccc(Br)c2)cc1"
result = "inactive"

[[record]]
compound = "C[C@H]1CCC/C=C/[C@@H]2C[C@H](O)C[C@H]2[C@H](O)[C@H](S(=O)c2ccc(O)cc2)CC(=O)O1 (stereo partly specified)"
result = "inactive"

[[record]]
compound = "O=C(CCC(=O)Nc1ccc(F)cc1)N/N=C/c1ccc(O)cc1"
result = "71.3 µM (active)"

[[record]]
compound = "O=C1C2C3C=CC(CC3)C2C(=O)N1/N=C/c1ccc(O)c(O)c1 (stereo unspecified)"
result = "64.1 µM (active)"


Next, consider the following compound.
Query: What value of IC50 has been recorded for this entry: "Nc1ccc(Nc2nc(-c3ccncc3)cs2)cc1"
Reply: 9.43 µM (active)

###

Assay: coupled detection enzyme interference, dose response, artefact control for MgcRacGAP inhibitor project, biochemical, coupled enzyme counter-screen (AID 624351);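 note: signal is the ADP detection kit reading of free GDP without any GAP enzyme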
Conditions: ADP Hunter coupled enzyme counter-screen, fluorescence, no MgcRacGAP; series mostly up to 80 µM
Screen size: about 2,400 compounds; about 1,400 (58%) were called active.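 How the source made its calls: active means inhibition of 30% or more at any tested dose; inconclusive means primary hits over the limit that were never retested; inactive means the rest.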 The set was probably picked from earlier hits. The list shows a part of the results.
I would appreciate it if you answered using one of these outcomes: class 1 for active, class 0 for inactive

[[record]]
compound = "Cn1c(=O)c2ccccc2n2c(=S)[nH]nc12"
assigned_category = "class 1"


Please find the next compound below.
Query: // param item: "COc1cc(CN2CCN(C(=O)c3cccc4ccccc34)CC2)cc(OC)c1OC" ; yields the recorded call
Reply: class 0
